In this section we review reported protein stability index values for a set of variants.
B1: TRIM43 (parent)
chain: FCDMDKSLLCLLCSNSQEHGAHKH

variants of: B1; test: protein stability index of a GFP-peptide fusion (GPS, HEK-293T) (PSI 1-6); higher = more stable; conditions: c terminus: a fixed tail appended;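 note: lentivirally expressed fusions sorted by FACS into six bins by GFP to DsRed ratio, PSI derived from sequencing read proportions per bin multiplied by bin number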
Please reply with the number alone, leaving off any unit.

Solved cases (4 shown):
- L12Y: 1.75
- S14L: 2.08
- D3I: 1.94
- S14A: 1.87

// protein stability index lookup, variant = C13M , result: 2.19

Form field protein stability index, entry L12F : 1.47

Summary for this variant, E18H : protein stability index is 1.81

This collection of values is drawn from the supplement of paper PMC10567573.
